# reported Average Cell Viability after 24 Hours (% DMSO); entries follow
# Tested on: viable cells in culture
# experiment: Cell viability assay (CellTiter-Glo Luminescent Cell Viability Assay, ATP quantitation, percent of vehicle control)
measuredParameter: Average Cell Viability after 24 Hours (% DMSO)

INSERT INTO measurements (molecule, subjectoftest, numericreadout) VALUES
  ('CC(=O)C1=C(C)NC(SCC(=O)Nc2sc3c(c2C#N)CCCC3)=C(C#N)C1c1ccc(Cl)cc1 (stereo not shown) [compound 1434]', 'viable cells in culture', 72.00),
  ('Oc1c(Br)cc(Br)cc1/C=N/Nc1ccccn1 [compound 1271]', 'viable cells in culture', 57.70),
  ('CCCC(=O)NC(c1cccs1)c1cc([N+](=O)[O-])c2cccnc2c1O (stereo not shown) [compound 1048]', 'viable cells in culture', 70.37),
  ('COC(=O)COc1ccc2c(=O)c(Oc3ccc(-c4ccccc4)cc3)coc2c1 [compound 1400]', 'viable cells in culture', 80.39);
